Attribution: patent US20250074910A1

Target: Menin/MLL-4-43 peptide interaction (Homo sapiens (Human), UniProt O00255)
Sequence (O00255 whole entry, species assumed): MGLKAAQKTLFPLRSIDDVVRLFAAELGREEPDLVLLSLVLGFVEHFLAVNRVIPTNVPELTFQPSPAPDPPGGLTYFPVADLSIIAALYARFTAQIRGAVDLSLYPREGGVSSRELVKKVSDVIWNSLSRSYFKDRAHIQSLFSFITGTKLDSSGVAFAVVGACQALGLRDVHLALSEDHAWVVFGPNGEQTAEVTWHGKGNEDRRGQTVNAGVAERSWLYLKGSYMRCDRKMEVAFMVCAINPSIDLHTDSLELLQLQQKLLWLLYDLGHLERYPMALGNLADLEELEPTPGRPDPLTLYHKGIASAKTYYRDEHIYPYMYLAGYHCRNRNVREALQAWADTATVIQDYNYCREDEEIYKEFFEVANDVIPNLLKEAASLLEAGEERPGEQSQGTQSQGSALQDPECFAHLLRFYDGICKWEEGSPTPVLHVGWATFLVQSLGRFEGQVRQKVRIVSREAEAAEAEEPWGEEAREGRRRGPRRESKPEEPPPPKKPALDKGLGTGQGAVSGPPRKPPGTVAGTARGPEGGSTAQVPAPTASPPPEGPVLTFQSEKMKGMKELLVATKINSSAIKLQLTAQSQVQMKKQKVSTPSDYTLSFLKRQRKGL
Assay: Menin-MLL interaction inhibitory activity assay (fluorescence polarization competition)
Conditions: FITC-MLL4-43-peptide, Menin recombinant protein
pIC50: −log10 of the molar value.
measureName: pIC50

• CC(C)N(C(=O)c1cc(F)ccc1Oc1nncnc1N1CC2(CCN(CC3CCC4(CC3)CC3(CC3)C(=O)N4)CC2)C1)C(C)C (single isomer, unassigned) [Example 44-2] = 8.10
• CCN(C(=O)c1cc(F)ccc1Oc1cncnc1N1CC2(CCN(CC3CC4CCC3CC43COC(=O)N3)CC2)C1)C(C)C (single isomer, unassigned) [Example 50-1] = 7.44
• CC(C)N(C(=O)c1cc(F)ccc1Oc1cncnc1N1CC2(CCN(C[C@H]3CC[C@]4(CC3)CC(C)(C)C(=O)N4)CC2)C1)C1CCC1 [Example 25] = 7.51

====

Test: Stability in mouse liver microsomes
Type: in vitro ADME
Conditions: liver microsomes, pH 7.4, 0.5 mg/mL microsomal protein, 1.00 μM compound, NADPH, read-out: Half life T1/2, mouse liver microsomes
measureName: half-life at 1 μM

• CC(C)N(C(=O)c1cc(F)ccc1Oc1cncnc1N1CC2(CCN(C[C@H]3CC[C@]4(CC3)CC(C)(C)C(=O)N4)CC2)C1)C1CC1 [Example 23] = 0.808 h
• CCN(C(=O)c1cc(F)ccc1Oc1nncnc1N1CC2(CCN(C[C@H]3CC[C@]4(CC3)CC3(CCOCC3)C(=O)N4)CC2)C1)C(C)C [Example 45] = > 2 h
• [2H]C([2H])([2H])C1C[C@]2(CC[C@@H](CN3CCC4(CC3)CN(c3ncnnc3Oc3ccc(F)cc3C(=O)N(CC)C(C)C)C4)CC2)NC1=O (single isomer, unassigned) [Example 42-1] = > 2 h
• CCN(C(=O)c1cc(F)ccc1Oc1nncnc1N1CC2(CCN(C[C@H]3CC[C@]4(CC3)CC(C(C)(C)O)C(=O)N4)CC2)C1)C(C)C (single isomer, unassigned) [Example 58-1a] = > 2 h
• CCN(C(=O)c1cc(F)ccc1Oc1nncnc1N1CC2(CCN(CC3CCC4(CC3)CN(C)C(=O)N4)CC2)C1)C(C)C (single isomer, unassigned) [Example 46-1] = > 2 h
• CC(C)N(C(=O)c1cc(F)ccc1Oc1nncnc1N1CC2(CCN(CC3CCC4(CC3)CN(C)C(=O)N4)CC2)C1)C(C)C (single isomer, unassigned) [Example 47-1] = > 2 h
• CCN(C(=O)c1cc(F)ccc1Oc1nncnc1N1CC2(CCN(C[C@H]3CC[C@]4(CC3)C[C@@H](COC)C(=O)N4)CC2)C1)C(C)C [Example 37-2] = > 2 h
• CC(C)N(C(=O)c1cc(F)ccc1Oc1nncnc1N1CC2(CCN(CC3CC4CCC3CC43CCC(=O)N3)CC2)C1)C(C)C (single isomer, unassigned) [Example 15-1a] = 1.52 h
• CCN(C(=O)c1cc(F)ccc1Oc1nncnc1N1CC2(CCN(C[C@H]3CC[C@]4(CC3)CC(C)(C)C(=O)N4)CC2)C1)C(C)C [Example 26] = 1.33 h
• COC[C@H]1C[C@]2(CC[C@@H](CN3CCC4(CC3)CN(c3ncnnc3Oc3ccc(F)cc3C(=O)N(C(C)C)C(C)C)C4)CC2)NC1=O [Example 38-1] = > 2 h
• CC(C)N(C(=O)c1cc(F)ccc1Oc1nncnc1N1CC2(CCN(C[C@H]3CC[C@]4(CC3)CC(C(C)(C)O)C(=O)N4)CC2)C1)C(C)C (single isomer, unassigned) [Example 59-1b] = 1.65 h
